Listed next: entries and their corresponding pIC50.
tested on: breast cancer cell line, SK-Br3; test: Inhibitory effect on growth of cancer cell line SK-Br3, SRB; type: cell-based; conditions: Homo sapiens, SK-BR-3, 72 h, overexpressed EGFR2 (HER-2)
Lab note: report pIC50 as minus log10 of the concentration in molar units, number only.

Consider the reported pIC50 for these compounds:
compound: C=CC(=O)Nc1cc2c(Nc3ccc(Br)cc3F)ncnc2cc1OCCNC(=O)C1CCCN1C (centres unmarked)
test.result: 6.75

compound: C=CC(=O)Nc1cc2c(Nc3ccc(Br)cc3F)ncnc2cc1OCCN(C)C
test.result: 6.09

compound: C=CC(=O)Nc1cc2c(Nc3ccc(Br)cc3F)ncnc2cc1OCC1CCN(C(=O)CS(C)(=O)=O)CC1
test.result: 6.67

compound: C=CC(=O)Nc1cc2c(Nc3ccc(Br)cc3F)ncnc2cc1OCCNC(=O)N1CCN(C)CC1
test.result: 6.62

compound: C=CC(=O)Nc1cc2c(Nc3c(F)cc(Br)cc3F)ncnc2cc1OCCNC(=O)CN(C)C
test.result: 6.90

compound: CCC(=O)Nc1cc2c(Nc3ccc(Br)cc3F)ncnc2cc1OCCNC(C)=O
test.result: 5.11

compound: C=CC(=O)Nc1cc2c(Nc3ccc(Br)cc3F)ncnc2cc1OCC1CCN(C(N)=O)CC1
test.result: 6.83

`C=CC(=O)Nc1cc2c(Nc3ccc(Br)cc3F)ncnc2cc1OCCNC(=O)CO` yielded pIC50 of 6.63

###

# log10 IC50 annotations
system: breast cancer cell line, SK-Br3; assay: Inhibitory effect on growth of cancer cell line SK-Br3, SRB; format: cell-based; details: Homo sapiens, SK-BR-3, 72 h, overexpressed EGFR2 (HER-2)
log10 IC50, nM

These recorded examples may help you get a feel for the data.
compound: C=CC(=O)Nc1cc2c(Nc3ccc(Br)cc3F)ncnc2cc1OCCNC(=O)CN
log10 IC50: 2.89
--
compound: C=CC(=O)Nc1cc2c(Nc3cc(Cl)c(Cl)cc3Cl)ncnc2cc1OCCNC(C)=O
log10 IC50: 3.01
--
compound: COc1cc2c(Nc3ccc(Br)cc3F)ncnc2cc1OCC1CCN(C)CC1 [Control 2, ZD6474, reference compound]
log10 IC50: 3.41
--
compound: C=CC(=O)Nc1cc2c(Nc3ccc(Br)cc3F)ncnc2cc1OCC1CCN(C(=O)NCC)CC1
log10 IC50: 2.17
--
compound: C=CC(=O)Nc1cc2c(Nc3ccc(Br)cc3C(F)(F)F)ncnc2cc1OCCNC(C)=O
log10 IC50: 2.95
--
compound: C=CC(=O)Nc1cc2c(Nc3ccc(Br)cc3F)ncnc2cc1OCCNC(=O)NC(C)CC (centres unmarked)
log10 IC50: 2.39

Form field, log10 IC50 with breast cancer cell line, SK-Br3, item `C=CC(=O)Nc1cc2c(Nc3ccc(Br)cc3F)ncnc2cc1OCCCNC(=O)C(F)(F)F` : 1.76

Value sought: log10 IC50, system breast cancer cell line, SK-Br3, item `C=CC(=O)Nc1cc2c(Nc3ccc(Br)cc3F)ncnc2cc1OCCNC(=O)C=CCN(C)C` . Result: 2.35

###

Item-by-item account of IC50
system: skin cancer cell line, A431; assay: Inhibitory effect on growth of cancer cell line A431, SRB; assay type: cell-based; details: Homo sapiens, A-431, 72 h, overexpressed EGFR1 (HER-1)
Number first, unit second.

compound: C=CC(=O)Nc1cc2c(Nc3ccc(Br)cc3F)ncnc2cc1OCCNC(=O)C(=O)OCC [Example 71]
test.result: 100 nM
//
compound: C=CC(=O)Nc1cc2c(Nc3ccc(Br)c(Cl)c3F)ncnc2cc1OCCNC(=O)CCOC [Example 150]
test.result: 22 nM
//
compound: C=CC(=O)Nc1cc2c(Nc3ccc(Br)cc3F)ncnc2cc1OCCNC(=O)C=CCN(C)C [Example 53]
test.result: 12 nM

Now for the compound whose IC50 we want.
Summary for this compound, C=CC(=O)Nc1cc2c(Nc3ccc(Br)cc3F)ncnc2cc1OCC(C)NC(=O)CCN(CC)CC (stereo not shown) [Example 155] : IC50 is 35 nM
